- experimental target: T1, AAV8 (adeno-associated virus 8, Assembled 60-mer capsid of VP1/VP2/VP3 (nested products of one cap gene), amine-coupled to a CM5 chip; the letters give one VP1 subunit only.)
- T1 construct: also called adeno-associated virus serotype 8
- T1 chain: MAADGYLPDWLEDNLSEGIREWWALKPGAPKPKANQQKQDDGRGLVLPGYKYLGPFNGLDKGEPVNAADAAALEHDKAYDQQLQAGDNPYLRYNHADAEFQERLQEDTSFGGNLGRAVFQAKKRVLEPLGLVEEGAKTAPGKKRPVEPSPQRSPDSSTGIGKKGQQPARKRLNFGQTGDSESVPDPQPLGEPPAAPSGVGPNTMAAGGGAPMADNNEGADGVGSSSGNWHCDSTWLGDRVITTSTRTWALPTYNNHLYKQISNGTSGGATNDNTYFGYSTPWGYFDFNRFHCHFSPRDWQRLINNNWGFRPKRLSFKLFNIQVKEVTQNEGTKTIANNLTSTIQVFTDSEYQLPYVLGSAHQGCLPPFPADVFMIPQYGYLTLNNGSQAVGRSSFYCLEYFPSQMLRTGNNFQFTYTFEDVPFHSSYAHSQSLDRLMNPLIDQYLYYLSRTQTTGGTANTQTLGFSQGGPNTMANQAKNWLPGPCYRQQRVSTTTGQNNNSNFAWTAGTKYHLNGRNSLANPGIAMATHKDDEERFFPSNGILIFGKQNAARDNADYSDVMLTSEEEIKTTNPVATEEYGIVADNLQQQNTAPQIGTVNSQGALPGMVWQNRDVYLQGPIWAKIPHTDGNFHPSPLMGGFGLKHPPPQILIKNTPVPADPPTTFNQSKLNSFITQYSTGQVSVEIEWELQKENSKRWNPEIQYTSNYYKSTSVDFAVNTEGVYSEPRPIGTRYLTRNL
- assay comment: SPR, AAV amine-coupled to CM5 chip
measured endpoint: koff (s⁻¹)
Give a bare numeral; the unit s⁻¹ is implied.

// query // koff lookup, key: A4-C6 (bispecific antibody) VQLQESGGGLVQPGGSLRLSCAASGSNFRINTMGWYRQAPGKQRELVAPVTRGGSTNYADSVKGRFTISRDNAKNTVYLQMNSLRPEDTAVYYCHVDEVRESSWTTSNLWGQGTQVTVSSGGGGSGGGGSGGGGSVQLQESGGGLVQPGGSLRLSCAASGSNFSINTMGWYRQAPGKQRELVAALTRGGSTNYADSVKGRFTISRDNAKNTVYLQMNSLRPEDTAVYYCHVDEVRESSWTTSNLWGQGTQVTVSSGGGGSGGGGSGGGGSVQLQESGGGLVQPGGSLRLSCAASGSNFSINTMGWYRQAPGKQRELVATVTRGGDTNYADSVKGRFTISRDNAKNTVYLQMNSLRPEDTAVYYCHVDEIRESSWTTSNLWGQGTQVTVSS
// result 0.00044

Recorded values, source patent US20260062463A1.
